# maps each entry to its Ki
biological target: hCA IX (Homo sapiens); construct: recombinant, obtained in-house; transmembrane isoform; test: stopped-flow CO2 hydrase assay
Use nM as the unit, but write only the number.

Data request: Consider the compound shown here: Nc1nc2c(Br)c(S(N)(=O)=O)ccc2s1 What is its recorded Ki?
Data returned: 29.6

Data request: State the recorded Ki for this entry: Nc1nc2cc(S(N)(=O)=O)ccc2s1 [compound 4, 2-Aminobenzo[d]thiazole-5-sulfonamide]
Data returned: 38.2

Data request: Query (compound): CC(=O)Nc1nc2cc(S(N)(=O)=O)ccc2s1 ; field requested: Ki
Data returned: 32.6

====

biological target: hCA IX (Homo sapiens, UniProt Q16790); construct: recombinant, obtained in-house; transmembrane isoform; experiment: stopped-flow CO2 hydrase assay
Value Kind: Ki (nM)
Provide only the numeric value, understood in nM.

Previously resolved entries follow.
| Compound | Ki [nM] |
| --- | --- |
| CC(=O)Nc1nc2ccc(S(N)(=O)=O)cc2s1 | 23.2 |
| NS(=O)(=O)c1ccc2nc(NC(=O)c3ccccc3C(=O)O)sc2c1 | 10 |
| Nc1nc2ccc(S(N)(=O)=O)cc2s1 [compound 2, 2-Aminobenzo[d]thiazole-6-sulfonamide] | 3.7 |
| CC(=O)Nc1nc2c(Br)cc(S(N)(=O)=O)cc2s1 | 34.4 |
| NC(=S)Nc1cccc(S(N)(=O)=O)c1 [compound 3, 3-Thioureidobenzenesulfonamide] | 296 |

Continue with the compound presented below.
Data request: Hi! What's the reported Ki for NC(=S)Nc1ccc(S(N)(=O)=O)cc1 [compound 1, 4-Thioureido-benzenesulfonamide] on hCA IX (Homo sapiens, UniProt Q16790)?
Data returned: 32.9
